molecular target: DRB1*0401 (DR4w4) (Homo sapiens, UniProt P01903+P01911, A100K/A169T/F76Y/I96L/K127E/L162R/M171V/N62H/P40V/Q125Y/R42H/S133A/S149N/S66Y/V115G/V209L/W38E); construct: used as sources of human HLA class II molecules; endogenous in cells; host or cells: PREISS (EBV-transformed homozygous B cell line); assay: Class II peptide-binding assay, DR4w4; conditions: Table VIII; read-out: In IC50 Format DR4w4;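 also: unlabeled test peptides compete with a radiolabeled probe peptide for binding to affinity-purified HLA-DR, with DR amount titrated to capture a small fraction of label, IC50 approximating Kd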
Ends that are not written are not given here.
propertyLabel: IC50 (nM)
Supply the numeric figure in nM, leaving out any unit text.

IN: Form field: reported IC50 of KMYFNLINTKCYKLEH [Peptide 541.14]
OUT: 2140
